biological target: MMNAT (Mycobacterium marinum, UniProt B2HIZ6); assay: Time-dependent inhibition assay (Kitz and Wilson model); type: biochemical, M. marinum; conditions: inhibitor at 11.9 µM; 24°C
Sequence (B2HIZ6 entry or part of it): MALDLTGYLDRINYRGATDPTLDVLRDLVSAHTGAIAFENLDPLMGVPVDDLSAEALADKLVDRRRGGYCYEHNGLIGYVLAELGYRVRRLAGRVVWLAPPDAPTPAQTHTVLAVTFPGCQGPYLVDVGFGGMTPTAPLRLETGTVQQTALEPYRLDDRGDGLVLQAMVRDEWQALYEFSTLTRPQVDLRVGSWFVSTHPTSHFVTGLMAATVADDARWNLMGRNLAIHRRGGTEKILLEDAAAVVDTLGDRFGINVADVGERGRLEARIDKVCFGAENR
Answer each item with its documented MMNAT kobs.

Which MMNAT kobs value belongs to "CN(CCC(=O)c1ccccc1)CCC(=O)c1ccccc1" ?
34±2 10^−3 min^−1

Query CN1CCC(O)(c2ccccc2)C(C(=O)c2ccccc2)C1 (stereo not shown) next
9±2 10^−3 min^−1

Query CC1(C)CC(N2CCC(O)(c3ccccc3)C(C(=O)c3ccccc3)C2)CC(C)(C)N1 (stereo not shown) next
586±115 10^−3 min^−1

Query CN1CCC(O)(c2ccc(Cl)cc2)C(C(=O)c2ccc(Cl)cc2)C1 (stereo not shown) next
110±2 10^−3 min^−1
